- targetSystem: T1, Cynomolgus CD3 on Cyno CD3+ Jurkat cells (cynomolgus, UniProt Q95LI5 22-198)
- T1 construct: whole, on cells; CD3 on cells; also called cCD3
- T1 sequence (Q95LI5 22-198): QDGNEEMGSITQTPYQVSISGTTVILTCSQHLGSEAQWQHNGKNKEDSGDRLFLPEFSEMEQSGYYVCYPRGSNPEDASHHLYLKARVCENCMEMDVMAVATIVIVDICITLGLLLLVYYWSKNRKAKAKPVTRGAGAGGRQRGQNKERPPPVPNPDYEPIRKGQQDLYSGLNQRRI
- protocolSummary: cell binding cCD3, fold over background
measuredParameter: Cell Binding cCD3 (FOB)
One number for each entry, in FOB.

>  <binder>
ADI-46378 (antibody, V domains shown, also called Ab40) VH: QVQLVQSGAEVKKPGASVKVSCKASGFNIKDYYMHWVRQAPGQRLEWIGWIDLENANTVYDAKFQGRVTITRDTSASAAYMELSSLRSEDTAVYYCARDAYGRYFYDVWGQGTLVTVSS VL: DIVMTQSPDSLAVSLGERATINCKSSQSLLNARTRKNYLAWYQQKPGRPPKLLIYWASTRESGVPDRFSGSGSGTDFTLTISSLQAEDVAVYYCVQSYFRRTFGGGTKVEIK

>  <Cell Binding cCD3 (FOB)>
91

$$$$

# return Cell Binding cCD3 (FOB) for each item in the list
1. ADI-45979 (antibody, V domains shown, also called Ab16) VH: QVQLVQSGAEVKKPGASVKVSCKASGFNIKDYYMHWVRQAPGQRLEWIGWIDLENANTVYDAKFQGRVTITRDTSASTAYMELSSLRSEDTAVYYCARDAYGRYFYDVWGQGTLVTVSS VL: DIVMTQSPDSLAVSLGERATINCKSSQELLNARTGKNYLAWYQQKPGQPPKLLIYWASTRESGVPDRFSGSGSGTDFTLTISSLQAEDVAVYYCKQSYFRRTFGGGTKVEIK
2. ADI-46370 (antibody, V domains shown, also called Ab34) VH: QVQLVQSGAEVKKPGASVKVSCKASGFNIKDYYMHWVRQAPGQRLEWIGWIDLENANTVYDHKFQGRVTITRDTSASTAYMELSSLRSEDTAVYYCARDAYGRYFYDVWGQGTLVTVSS VL: DIVMTQSPDSLAVSLGERATINCKSSQSLLNARTGKNYLAWYQQKPGQPPKLLIYWASTRESGVPDRFSGSGSGTDFTLTISSLQAEDVAVYYCVQSYFRRTFGGGTKVEIK

1: 72; 2: 46
